The measured values listed here are drawn from ChEMBL document CHEMBL2417505.

Target: Aurora kinase A (Homo sapiens) (UniProt O14965)
Sequence (O14965 whole entry): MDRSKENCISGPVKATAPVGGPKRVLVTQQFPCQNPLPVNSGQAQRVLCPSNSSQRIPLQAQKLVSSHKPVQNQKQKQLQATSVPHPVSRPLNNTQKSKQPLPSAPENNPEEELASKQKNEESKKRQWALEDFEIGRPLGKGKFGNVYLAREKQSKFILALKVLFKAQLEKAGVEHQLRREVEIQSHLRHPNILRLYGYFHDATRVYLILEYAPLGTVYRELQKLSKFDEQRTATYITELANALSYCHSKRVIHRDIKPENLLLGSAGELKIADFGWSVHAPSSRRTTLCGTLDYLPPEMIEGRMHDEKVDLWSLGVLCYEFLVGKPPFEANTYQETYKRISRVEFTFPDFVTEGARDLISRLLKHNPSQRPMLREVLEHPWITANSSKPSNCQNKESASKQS
Test: Inhibition of aurora A kinase (unknown origin) at 100 nM
Classify by measured inhibition: condition met if it is equal to or exceeds 80%, condition not met if it is smaller.

Example entries and their recorded answers appear below.
> print(dat)
                               query.smiles              group
1  Cn1cc(-c2cnc3[nH]cc(-c4cnn(Cc5cccc(Cl)c5)c4)c3c2)cn1      condition met
2  Cn1cc(-c2cnc3[nH]cc(-c4cnn(Cc5cccc(O)c5)c4)c3c2)cn1      condition met
3  Cn1cc(-c2cnc3[nH]cc(-c4cnn(Cc5ccc(F)c(F)c5)c4)c3c2)cn1      condition met
4  Cn1cc(-c2cnc3[nH]cc(-c4cnn(Cc5ccccc5)c4)c3c2)cn1      condition met
5  Cn1cc(-c2cnc3[nH]cc(-c4cnn(Cc5cc(F)ccc5F)c4)c3c2)cn1  condition not met

Exercise: Does `Cn1cc(-c2cnc3[nH]cc(-c4cnn(Cc5cc(F)cc(F)c5)c4)c3c2)cn1` have a reported inhibition of at least 80%?
Key: condition not met

Exercise: Is reported inhibition greater than or equal to 80% here: `Cn1cc(-c2cnc3[nH]cc(-c4cnn(Cc5cccc(C#N)c5)c4)c3c2)cn1`
Key: condition met

Exercise: Kindly determine if inhibition recorded for `Cn1cc(-c2cnc3[nH]cc(-c4cnn(Cc5ccccc5F)c4)c3c2)cn1` is above or exactly 80%.
Key: condition not met

Exercise: Say whether `Cn1cc(-c2cnc3[nH]cc(-c4cnn(Cc5cccc(C(F)(F)F)c5)c4)c3c2)cn1` shows inhibition of 80% or more.
Key: condition met
